study-target: VEGFR-2 (Homo sapiens)
Construct: endogenous in cells
Sequence (P35968 20-1356): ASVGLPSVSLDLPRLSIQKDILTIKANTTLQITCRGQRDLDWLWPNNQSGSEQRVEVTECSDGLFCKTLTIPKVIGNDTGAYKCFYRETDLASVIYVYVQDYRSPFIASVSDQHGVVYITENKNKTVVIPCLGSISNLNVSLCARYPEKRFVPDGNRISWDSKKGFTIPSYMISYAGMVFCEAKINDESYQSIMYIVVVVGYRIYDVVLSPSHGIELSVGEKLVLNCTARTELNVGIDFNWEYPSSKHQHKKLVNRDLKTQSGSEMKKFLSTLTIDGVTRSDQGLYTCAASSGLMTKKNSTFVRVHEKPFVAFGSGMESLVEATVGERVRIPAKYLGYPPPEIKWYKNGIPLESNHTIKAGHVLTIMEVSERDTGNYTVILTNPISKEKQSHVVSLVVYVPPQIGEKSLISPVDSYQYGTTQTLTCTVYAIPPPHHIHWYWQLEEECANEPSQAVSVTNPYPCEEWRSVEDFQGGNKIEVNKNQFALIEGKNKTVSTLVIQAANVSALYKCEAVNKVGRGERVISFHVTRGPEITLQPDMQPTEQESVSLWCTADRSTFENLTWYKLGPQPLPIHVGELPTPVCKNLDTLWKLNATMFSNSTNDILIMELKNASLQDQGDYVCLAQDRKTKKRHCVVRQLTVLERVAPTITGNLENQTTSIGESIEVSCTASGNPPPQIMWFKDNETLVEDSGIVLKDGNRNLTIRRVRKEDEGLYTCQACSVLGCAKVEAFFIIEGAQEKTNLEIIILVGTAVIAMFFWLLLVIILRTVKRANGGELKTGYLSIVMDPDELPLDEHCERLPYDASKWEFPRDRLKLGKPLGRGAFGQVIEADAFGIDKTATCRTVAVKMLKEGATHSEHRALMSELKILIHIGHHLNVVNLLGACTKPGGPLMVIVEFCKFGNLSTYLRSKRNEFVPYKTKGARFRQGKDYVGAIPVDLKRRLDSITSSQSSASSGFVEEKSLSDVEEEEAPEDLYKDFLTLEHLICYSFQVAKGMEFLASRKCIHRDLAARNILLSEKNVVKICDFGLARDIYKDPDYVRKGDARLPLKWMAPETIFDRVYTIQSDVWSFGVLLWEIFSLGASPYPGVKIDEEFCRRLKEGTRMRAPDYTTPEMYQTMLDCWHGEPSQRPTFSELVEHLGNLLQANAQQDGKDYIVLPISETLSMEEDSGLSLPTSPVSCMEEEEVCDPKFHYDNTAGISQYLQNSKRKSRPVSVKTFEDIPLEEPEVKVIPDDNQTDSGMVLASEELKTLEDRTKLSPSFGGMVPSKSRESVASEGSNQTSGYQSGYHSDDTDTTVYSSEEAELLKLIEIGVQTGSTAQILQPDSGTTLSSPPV
assay-summary: VEGF-165 induced phosphorylation of VEGF-Receptor on HUVEC
protocol-conditions: HUVEC preincubated 60 min, VEGF165 25 ng/mL 2 min; read-out: VEGFR-Phosphorylation inhibition IC50
pIC50: −log10 of the molar value.
reported-metric: pIC50

# molecule, pIC50
data = [
    ("O=C(O)c1cc(O)c(C(=O)Nc2ccccc2-c2nnn[nH]2)cc1O [Ia-001a-Tz]", 6.64),
    ("COC(=O)c1cc(O)ccc1NC(=O)c1cc(O)c(C(=O)Nc2ccc(O)cc2C(=O)OC)cc1O [Ic-009a-E2]", 7.70),
    ("O=C(O)c1cc(NC(=O)c2cc(O)c(C(=O)Nc3ccc(O)c(C(=O)O)c3)cc2O)ccc1O [Ic-007a]", 7.05),
]

1 = O=C(O)c1ccc(NC(=O)c2cc(O)cc(C(=O)O)c2O)cc1C(=O)O [IIa-014a]
2 = CCOC(=O)c1cc(NC(=O)c2cc(O)c(C(=O)OCC)cc2O)cc(NC(=O)c2cc(O)c(C(=O)OCC)cc2O)c1 [Ib-010a-E3]
3 = O=C(O)c1cc(O)cc(CSCc2cc(O)cc(C(=O)O)c2O)c1O [IVc-058a]
4 = CC(=O)N(Cc1cc(O)c(C(=O)O)cc1O)Cc1cc(O)c(C(=O)O)cc1O [IIIc-057a]
5 = CCOC(=O)c1cc(O)c(C(=O)Nc2ccc(O)c(C(=O)OC)c2)cc1O [Ia-004a-E2]
IN: Hello, I need these entries ordered by pIC50, highest reading first. Thanks! As an answer, provide the labels arranged in the order called for.
OUT: 2, 4, 3, 5, 1
(2: 7.05, 4: 6.70, 3: 6.28, 5: 5.21, 1: 4.75)
